From: paper PMC12030706

Kindly state tissue to tissue ratio at 72 h for each of the entries shown.
Assay: Ex vivo biodistribution in PC-3 tumor-bearing mice
Details: male, NOD.Cg-Rag1^tm1Mom Il2rg^tm1Wjl/SzJ (NRG), mouse, tumor/muscle, total radioactivity, Tumor/muscle uptake ratio, 72 h post-injection
Numbered stars: 1 amine (or outer) side, 2 acyl side, 3 side chain; on linkers, the order of the positions; unused ones are H or OH. Square brackets hold non-standard residues; d marks the D form. Peptide text beside a SMILES is read from it. * marks the point of attachment. DOTA = O=C(O)CN1CCN(CC(=O)O)CCN(CC(=O)*)CCN(CC(=O)O)CC1; NMeH = CN[C@@H](Cc1c[nH]cn1)C(=O)O; X1 = O=C(CN1CCC(N[*:1])CC1)[*:2]; Tle = CC(C)(C)[C@H](N)C(=O)O; Thz = O=C(O)[C@@H]1CSCN1
Write the value as a bare number.

Which tissue to tissue ratio at 72 h value is on record for CC(C)C[C@H](NC(=O)[C@H](Cc1cnc[nH]1)N(C)C(=O)CNC(=O)[C@@H](NC(=O)[C@H](C)NC(=O)[C@H](Cc1c[nH]c2ccccc12)NC(=O)[C@H](Cc1c[nH]cn1)NC(=O)[C@@H](Cc1ccccc1)NC(=O)CN1CCC(NC(=O)CN2CCN(CC(=O)O)CCN(CC(=O)O)CCN(CC(=O)O)CC2)CC1)C(C)(C)C)C(=O)N1CSC[C@H]1C(N)=O [[^177Lu]Lu-LW01142, metal not drawn] ({DOTA}-[X1][dF]HWA[Tle]G[NMeH]L[Thz]-NH2) ?
736

Give its tissue to tissue ratio at 72 h value. Item: CC(C)C[C@H](NC(=O)[C@H](Cc1cnc[nH]1)N(C)C(=O)CNC(=O)[C@@H](NC(=O)[C@H](C)NC(=O)[C@H](Cc1c[nH]c2ccccc12)NC(=O)[C@H](CCC(N)=O)NC(=O)[C@@H](Cc1ccccc1)NC(=O)CN1CCC(NC(=O)CN2CCN(CC(=O)O)CCN(CC(=O)O)CCN(CC(=O)O)CC2)CC1)C(C)(C)C)C(=O)N1CSC[C@H]1C(N)=O [[^177Lu]Lu-LW01110, metal not drawn]
647
